- EXPERIMENTAL_SYSTEM: human FAAH (Homo sapiens, UniProt O00519)
- Construct: host or cells: COS-7 cells, transient transfection (FuGENE 6); 13,000 g membrane fraction solubilised in 1% Triton X-100
- Sequence (O00519 1-579): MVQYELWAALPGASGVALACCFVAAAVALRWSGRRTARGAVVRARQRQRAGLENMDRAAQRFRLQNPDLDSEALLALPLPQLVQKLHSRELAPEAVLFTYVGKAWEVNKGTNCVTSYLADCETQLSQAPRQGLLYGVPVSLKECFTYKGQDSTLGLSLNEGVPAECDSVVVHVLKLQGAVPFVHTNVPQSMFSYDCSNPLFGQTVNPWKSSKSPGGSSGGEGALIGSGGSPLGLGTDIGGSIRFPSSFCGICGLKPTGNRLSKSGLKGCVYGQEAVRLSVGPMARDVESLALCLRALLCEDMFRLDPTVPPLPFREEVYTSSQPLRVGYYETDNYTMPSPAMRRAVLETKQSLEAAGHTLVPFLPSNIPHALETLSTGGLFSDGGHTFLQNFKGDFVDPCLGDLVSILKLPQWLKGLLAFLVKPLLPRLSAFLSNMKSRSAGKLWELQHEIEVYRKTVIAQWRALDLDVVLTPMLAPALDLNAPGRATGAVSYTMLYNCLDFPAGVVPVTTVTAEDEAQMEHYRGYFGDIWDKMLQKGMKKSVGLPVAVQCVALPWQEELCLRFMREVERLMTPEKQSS
- MEASUREMENT_DESCRIPTION: Human FAAH biochemical inhibition assay (AMC arachidonoyl amide fluorescence)
- STUDY_CONDITIONS: class given in each Example, read-out: Activity (Ki, inhibition of human FAAH)
- Experimental: Exemplary compounds are set forth in the Examples provided below. Compounds were assayed as inhibitors of human FAAH using the method described in detail in Example 286. […] Rat FAAH biochemical assays were carried out in a 96 well flat bottom black non-treated polystyrene plates (Corning Costar Catalogue #3915). […] The reaction was read in an Envision microtiter plate reader [Excitation filter 355 nm (40 nm bandpass); Emmision filter 460 nm (25 nm bandpass)]. […]
Each record here notes measured Ki.

Recorded Ki, per entry:
MOL_SMILES: OB(O)c1cccc(-c2nnc(-c3ccccc3)o2)c1
Ki: 100 to 1000 nM

MOL_SMILES: OB(O)c1ccc(-c2nnc(-c3ccccc3)s2)cc1
Ki: ≤ 10 nM

MOL_SMILES: CC(C)(C)OC(=O)Nc1cccc(NC(=O)/C=C/c2ccccc2B(O)O)c1
Ki: > 1000 nM

MOL_SMILES: OB(O)c1cc2oc(CCc3ccccc3)nc2cc1F
Ki: ≤ 10 nM

# input for lookup
For the compound shown here, CC(C)(O)c1nnc(-c2ccc(B(O)O)cc2)o1 , give the reported Ki.
10 to 100 nM

###

- EXPERIMENTAL_SYSTEM: human FAAH (Homo sapiens)
- Construct: host or cells: COS-7 cells, transient transfection (FuGENE 6); 13,000 g membrane fraction solubilised in 1% Triton X-100
- MEASUREMENT_DESCRIPTION: Human FAAH biochemical inhibition assay (AMC arachidonoyl amide fluorescence)
- STUDY_CONDITIONS: class given in each Example, read-out: Activity (Ki, inhibition of human FAAH)
pKi: −log10 of the molar value.
MEASUREMENT_LABEL: pKi

MOLECULE: OB(O)c1ccc2nc(N3CCCc4ccccc43)ccc2c1 [Compound 207]
MEASUREMENT_LABEL: pKi
TEST_VALUE: 7.00 to 8.00

MOLECULE: OB(O)c1ccc(-c2nnc(CCC3CCCCC3)o2)cc1 [Compound 36]
MEASUREMENT_LABEL: pKi
TEST_VALUE: ≥ 8.00

For the molecule shown here, OB(O)c1ccc(COc2cccc(B(O)O)c2)cc1 [Compound 326] , give the reported pKi.
≥ 8.00

For the molecule shown here, OB(O)c1ccc(-c2nnc(CCCC(F)(F)F)o2)cc1 [Compound 40] , give the reported pKi.
≥ 8.00

For the molecule shown here, O=S(=O)(c1ccccc1)N1CCC(Cc2nc3ccc(B(O)O)cc3o2)CC1 [Compound 305] , give the reported pKi.
7.00 to 8.00

###

- EXPERIMENTAL_SYSTEM: human FAAH (Homo sapiens, UniProt O00519)
- Construct: host or cells: COS-7 cells, transient transfection (FuGENE 6); 13,000 g membrane fraction solubilised in 1% Triton X-100
- MEASUREMENT_DESCRIPTION: Human FAAH biochemical inhibition assay (AMC arachidonoyl amide fluorescence)
- STUDY_CONDITIONS: class given in each Example, read-out: Activity (Ki, inhibition of human FAAH)
MEASUREMENT_LABEL: Ki

Recorded Ki, per entry:
COMPOUND: Cc1nc(-c2nnc(-c3cc(OCCc4ccccc4)ccc3B(O)O)o2)cs1 [Compound 269]
EXPERIMENTAL_SYSTEM: human FAAH (Homo sapiens, UniProt O00519)
Ki: 0.1 to 1 µM
//
COMPOUND: OB(O)c1ccc(-c2cccc3ncccc23)cc1F [Compound 229]
EXPERIMENTAL_SYSTEM: human FAAH (Homo sapiens, UniProt O00519)
Ki: 0.01 to 0.1 µM
//
COMPOUND: OB(O)c1ccc2nc(Oc3ccccc3O)ccc2c1 [Compound 199]
EXPERIMENTAL_SYSTEM: human FAAH (Homo sapiens, UniProt O00519)
Ki: ≤ 0.01 µM
//
COMPOUND: N#Cc1cccc(Oc2ccc3cc(B(O)O)ccc3n2)c1 [Compound 198]
EXPERIMENTAL_SYSTEM: human FAAH (Homo sapiens, UniProt O00519)
Ki: ≤ 0.01 µM

# input for lookup
For the compound shown here, COc1cccc(-c2nnc(-c3ccc(B(O)O)cc3)o2)c1OC [Compound 44] , give the reported Ki.
≤ 0.01 µM

###

Each record here notes measured Ki.
- EXPERIMENTAL_SYSTEM: human FAAH (Homo sapiens)
- Construct: host or cells: COS-7 cells, transient transfection (FuGENE 6); 13,000 g membrane fraction solubilised in 1% Triton X-100
- MEASUREMENT_DESCRIPTION: Human FAAH biochemical inhibition assay (AMC arachidonoyl amide fluorescence)
- STUDY_CONDITIONS: class given in each Example, read-out: Activity (Ki, inhibition of human FAAH)

COMPOUND: OB(O)c1ccc(-c2ncc(-c3ccccc3)s2)cc1F [Compound 3]
EXPERIMENTAL_SYSTEM: human FAAH (Homo sapiens)
MEASUREMENT_LABEL: Ki
TEST_VALUE: > 1000 nM
//
COMPOUND: OB(O)c1ccc([C@H]2OC[C@@H](c3ccccc3)CO2)cc1F [Compound 174]
EXPERIMENTAL_SYSTEM: human FAAH (Homo sapiens)
MEASUREMENT_LABEL: Ki
TEST_VALUE: ≤ 10 nM
//
COMPOUND: OB(O)c1ccc(-c2nnc(-c3ccc4c(c3)OCO4)o2)cc1 [Compound 45]
EXPERIMENTAL_SYSTEM: human FAAH (Homo sapiens)
MEASUREMENT_LABEL: Ki
TEST_VALUE: ≤ 10 nM

For the compound shown here, OB(O)c1ccc(-n2cc(-c3ccccc3)nn2)cc1F [Compound 141] , give the reported Ki.
10 to 100 nM

For the compound shown here, CC(C)Cn1cc(B(O)O)cn1 [Compound 220] , give the reported Ki.
100 to 1000 nM

For the compound shown here, OB(O)c1ccc(-c2cnn(Cc3ccccc3)c2)cc1 [Compound 227] , give the reported Ki.
≤ 10 nM

For the compound shown here, CN(C)c1nnc(-c2ccccc2B(O)O)o1 [Compound 282] , give the reported Ki.
> 1000 nM

For the compound shown here, CC(C)(C)OC(=O)NCCc1nnc(-c2ccc(B(O)O)cc2)o1 [Compound 82] , give the reported Ki.
10 to 100 nM

For the compound shown here, CCCC1(c2ccccc2)CC(c2ccc(B(O)O)cc2)=NO1 (centres unmarked) [Compound 163] , give the reported Ki.
100 to 1000 nM

For the compound shown here, OB(O)c1ccc(-c2cccc3[nH]ccc23)cc1F [Compound 230] , give the reported Ki.
10 to 100 nM

###

- EXPERIMENTAL_SYSTEM: human FAAH (Homo sapiens, UniProt O00519)
- Construct: host or cells: COS-7 cells, transient transfection (FuGENE 6); 13,000 g membrane fraction solubilised in 1% Triton X-100
- MEASUREMENT_DESCRIPTION: Human FAAH biochemical inhibition assay (AMC arachidonoyl amide fluorescence)
- STUDY_CONDITIONS: Table A, read-out: Activity (Ki) of other boronic acids tested, Table A
pKi: −log10 of the molar value.
Each record here notes measured pKi.

Recorded pKi, per entry:
MOL_SMILES: O=C(O)CCc1ccc(B(O)O)cc1
pKi: < 6.00

MOL_SMILES: CC(=O)Nc1ccc(B(O)O)cc1
pKi: < 6.00

MOL_SMILES: O=S(=O)(c1ccc(B(O)O)cc1)n1cccc1
pKi: 7.00 to 8.00

MOL_SMILES: OB(O)c1ccc(C(F)(F)F)nc1
pKi: 6.00 to 7.00

MOL_SMILES: OB(O)c1ccc(OCCn2ccnc2)cc1
pKi: 6.00 to 7.00

For the compound shown here, OB(O)c1ccc(-c2ccc(F)cc2)nc1 , give the reported pKi.
7.00 to 8.00

For the compound shown here, COC(=O)Nc1ccc(B(O)O)cc1 , give the reported pKi.
< 6.00

For the compound shown here, Cc1cc(B(O)O)cnc1N1CCOCC1 , give the reported pKi.
6.00 to 7.00

For the compound shown here, COCCNC(=O)c1ccc(B(O)O)cc1 , give the reported pKi.
6.00 to 7.00

Origin of the recorded values: patent US8957049B2
